Entries and their measured IC50 follow.
# subject.of.test: ERK5 (Homo sapiens, UniProt Q13164)
# Construct: screened for activity against several kinases in Jurkat cells; endogenous in cells; host or cells: Jurkat cell lysate
# Sequence (Q13164 whole entry): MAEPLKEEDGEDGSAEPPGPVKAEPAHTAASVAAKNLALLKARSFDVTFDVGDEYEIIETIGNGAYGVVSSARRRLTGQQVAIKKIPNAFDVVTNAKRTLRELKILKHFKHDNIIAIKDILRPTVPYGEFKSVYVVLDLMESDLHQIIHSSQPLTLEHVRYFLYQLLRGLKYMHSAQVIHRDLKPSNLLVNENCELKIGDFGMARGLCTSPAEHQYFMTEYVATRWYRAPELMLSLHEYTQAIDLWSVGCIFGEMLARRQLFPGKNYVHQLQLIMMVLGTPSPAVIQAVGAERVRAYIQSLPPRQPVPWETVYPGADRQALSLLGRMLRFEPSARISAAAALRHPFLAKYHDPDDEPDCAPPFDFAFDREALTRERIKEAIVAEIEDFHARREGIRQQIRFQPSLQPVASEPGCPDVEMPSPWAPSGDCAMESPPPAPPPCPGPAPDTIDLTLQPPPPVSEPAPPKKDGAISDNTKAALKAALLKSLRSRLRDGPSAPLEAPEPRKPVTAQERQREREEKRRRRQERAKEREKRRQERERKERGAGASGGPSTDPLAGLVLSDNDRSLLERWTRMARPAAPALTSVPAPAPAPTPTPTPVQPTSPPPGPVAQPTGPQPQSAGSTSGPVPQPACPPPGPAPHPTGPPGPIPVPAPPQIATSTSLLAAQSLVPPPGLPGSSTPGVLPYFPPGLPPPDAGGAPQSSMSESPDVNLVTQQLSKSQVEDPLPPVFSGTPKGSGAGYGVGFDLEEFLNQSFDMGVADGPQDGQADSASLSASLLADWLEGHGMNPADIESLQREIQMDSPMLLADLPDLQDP
# measurement.notes: Probe-based (AX9989 acyl phosphate ATP probe) kinase profiling in Jurkat lysate: ERK5
# Type: binding
# condition.parameters: calculated from percent inhibition of AX9989 labeling and the screening concentration; Jurkat lysate

>  <compound>
COc1ccc(C(=O)N2CCNCC2)cc1Nc1cc2c(cn1)N(C)C(=O)c1ccccc1N2C [Compound 87]

>  <subject.of.test>
ERK5 (Homo sapiens, UniProt Q13164)

>  <IC50>
101 to 500 nM

$$$$
>  <compound>
CCOc1cc(C(=O)N2CCC(N3CCN(C)CC3)CC2)ccc1Nc1cc2c(cn1)N(C)C(=O)c1occc1N2C [Compound 65]

>  <subject.of.test>
ERK5 (Homo sapiens, UniProt Q13164)

>  <IC50>
≤ 50 nM

$$$$
>  <compound>
CCOc1cc(C(=O)N2CCC(F)C2)ccc1Nc1cc2c(cn1)N(C)C(=O)c1occc1N2C (centres unmarked) [Compound 72]

>  <subject.of.test>
ERK5 (Homo sapiens, UniProt Q13164)

>  <IC50>
≤ 50 nM

$$$$
>  <compound>
COc1ccc(Nc2cc3c(cn2)N(C)C(=O)c2ccccc2N3C)c(C)c1 [Compound 41]

>  <subject.of.test>
ERK5 (Homo sapiens, UniProt Q13164)

>  <IC50>
101 to 500 nM

$$$$
>  <compound>
Cc1cc(O)ccc1Nc1cc2c(cn1)N(C)C(=O)c1ccccc1N2C [Compound 38]

>  <subject.of.test>
ERK5 (Homo sapiens, UniProt Q13164)

>  <IC50>
101 to 500 nM

$$$$
>  <compound>
COC(=O)[C@H]1CC[C@H](Nc2cc3c(cn2)N(C)C(=O)c2ccccc2N3C)CC1 [Compound 81]

>  <subject.of.test>
ERK5 (Homo sapiens, UniProt Q13164)

>  <IC50>
> 500 nM

$$$$
>  <compound>
CN1C(=O)c2ccccc2N(C)c2cc(N[C@H]3CC[C@H](Nc4ncccn4)CC3)ncc21 [Compound 47]

>  <subject.of.test>
ERK5 (Homo sapiens, UniProt Q13164)

>  <IC50>
> 500 nM

$$$$
>  <compound>
CCOc1cc(C(=O)N2CCC(N3CCN(C)CC3)CC2)ccc1Nc1cc2c(cn1)N(C)C(=O)c1ccccc1N2C [Compound 61]

>  <subject.of.test>
ERK5 (Homo sapiens, UniProt Q13164)

>  <IC50>
50 to 100 nM

$$$$
>  <compound>
CCOc1cc(C(=O)NCC2CC2)ccc1Nc1cc2c(cn1)N(C)C(=O)c1ccccc1N2C [Compound 57]

>  <subject.of.test>
ERK5 (Homo sapiens, UniProt Q13164)

>  <IC50>
101 to 500 nM

$$$$
>  <compound>
CCOc1cc(C(=O)N2CC(N3CCCCC3)C2)ccc1Nc1cc2c(cn1)N(C)C(=O)c1ccccc1N2C [Compound 114]

>  <subject.of.test>
ERK5 (Homo sapiens, UniProt Q13164)

>  <IC50>
≤ 50 nM

$$$$
>  <compound>
CCOc1cc(C(=O)N(C)CCN(C)C)ccc1Nc1cc2c(cn1)N(C)C(=O)c1ccccc1N2C [Compound 88]

>  <subject.of.test>
ERK5 (Homo sapiens, UniProt Q13164)

>  <IC50>
≤ 50 nM

$$$$
>  <compound>
CN1C(=O)c2occc2N(C)c2cc(N[C@H]3CC[C@H](N)CC3)ncc21 [Compound 53]

>  <subject.of.test>
ERK5 (Homo sapiens, UniProt Q13164)

>  <IC50>
101 to 500 nM

$$$$
>  <compound>
Cc1cc(CO)ccc1Nc1cc2c(cn1)N(C)C(=O)c1ccccc1N2C [Compound 85]

>  <subject.of.test>
ERK5 (Homo sapiens, UniProt Q13164)

>  <IC50>
101 to 500 nM

$$$$
>  <compound>
CCN(CC)CCNC(=O)c1ccc(OC)c(Nc2cc3c(cn2)N(C)C(=O)c2ccccc2N3C)c1 [Compound 16]

>  <subject.of.test>
ERK5 (Homo sapiens, UniProt Q13164)

>  <IC50>
101 to 500 nM

$$$$
>  <compound>
CCOc1cc(C(=O)NC2CCOCC2)ccc1Nc1cc2c(cn1)N(C)C(=O)c1ccccc1N2C [Compound 80]

>  <subject.of.test>
ERK5 (Homo sapiens, UniProt Q13164)

>  <IC50>
101 to 500 nM

$$$$
>  <compound>
CCOc1cc(C(=O)N(C)CCN(CC)CC)ccc1Nc1cc2c(cn1)N(C)C(=O)c1ccccc1N2C [Compound 42]

>  <subject.of.test>
ERK5 (Homo sapiens, UniProt Q13164)

>  <IC50>
≤ 50 nM

$$$$
>  <compound>
CCOc1cc(C)ccc1Nc1cc2c(cn1)N(C)C(=O)c1ccccc1N2C [Compound 95]

>  <subject.of.test>
ERK5 (Homo sapiens, UniProt Q13164)

>  <IC50>
> 500 nM

$$$$
>  <compound>
COc1c(Nc2cc3c(cn2)N(C)C(=O)c2ccccc2N3C)cccc1C(=O)O [Compound 9]

>  <subject.of.test>
ERK5 (Homo sapiens, UniProt Q13164)

>  <IC50>
> 500 nM

$$$$
>  <compound>
CCOc1cc(C(=O)O)ccc1Nc1cc2c(cn1)N(C)C(=O)c1ccccc1N2C [Compound 18]

>  <subject.of.test>
ERK5 (Homo sapiens, UniProt Q13164)

>  <IC50>
> 500 nM

$$$$
>  <compound>
CCOc1cc(C(=O)NCCN(CC)CC)ccc1Nc1cc2c(cn1)N(C)C(=O)c1ccccc1N2C [Compound 103]

>  <subject.of.test>
ERK5 (Homo sapiens, UniProt Q13164)

>  <IC50>
≤ 50 nM

$$$$
>  <compound>
CCOc1cc(C(=O)NCCCN(CC)CC)ccc1Nc1cc2c(cn1)N(C)C(=O)c1ccccc1N2C [Compound 54]

>  <subject.of.test>
ERK5 (Homo sapiens, UniProt Q13164)

>  <IC50>
101 to 500 nM

$$$$
>  <compound>
Cc1nn(C)cc1Nc1cc2c(cn1)N(C)C(=O)c1ccccc1N2C [Compound 22]

>  <subject.of.test>
ERK5 (Homo sapiens, UniProt Q13164)

>  <IC50>
101 to 500 nM

$$$$
>  <compound>
CCOc1cc(C(=O)N2CCCN(C)CC2)ccc1Nc1cc2c(cn1)N(C)C(=O)c1ccccc1N2C [Compound 8]

>  <subject.of.test>
ERK5 (Homo sapiens, UniProt Q13164)

>  <IC50>
101 to 500 nM

$$$$
>  <compound>
CCOc1cc(C(=O)N2CCN(CC)CC2)ccc1Nc1cc2c(cn1)N(C)C(=O)c1ccccc1N2C [Compound 108]

>  <subject.of.test>
ERK5 (Homo sapiens, UniProt Q13164)

>  <IC50>
≤ 50 nM

$$$$
>  <compound>
CN1C(=O)c2ccccc2N(C)c2cc(N[C@H]3CC[C@H](NS(C)(=O)=O)CC3)ncc21 [Compound 99]

>  <subject.of.test>
ERK5 (Homo sapiens, UniProt Q13164)

>  <IC50>
101 to 500 nM

$$$$
>  <compound>
Cc1ccc(Nc2cc3c(cn2)N(C)C(=O)c2ccccc2N3C)c(C)c1 [Compound 3]

>  <subject.of.test>
ERK5 (Homo sapiens, UniProt Q13164)

>  <IC50>
> 500 nM

$$$$
>  <compound>
CCOc1cc(C(=O)N(C)CCn2ccnc2)ccc1Nc1cc2c(cn1)N(C)C(=O)c1ccccc1N2C [Compound 30]

>  <subject.of.test>
ERK5 (Homo sapiens, UniProt Q13164)

>  <IC50>
≤ 50 nM

$$$$
>  <compound>
CCOc1cc(C(=O)NCCc2ccncc2)ccc1Nc1cc2c(cn1)N(C)C(=O)c1ccccc1N2C [Compound 107]

>  <subject.of.test>
ERK5 (Homo sapiens, UniProt Q13164)

>  <IC50>
> 500 nM

$$$$
>  <compound>
COc1ccccc1Nc1cc2c(cn1)N(C)C(=O)c1ccccc1N2C [Compound 19]

>  <subject.of.test>
ERK5 (Homo sapiens, UniProt Q13164)

>  <IC50>
> 500 nM

$$$$
>  <compound>
Cc1c(Nc2cc3c(cn2)N(C)C(=O)c2ccccc2N3C)cnn1C [Compound 59]

>  <subject.of.test>
ERK5 (Homo sapiens, UniProt Q13164)

>  <IC50>
101 to 500 nM

$$$$
>  <compound>
CCOc1cc(C(=O)N2CCN(CCOCCO)CC2)ccc1Nc1cc2c(cn1)N(C)C(=O)c1ccccc1N2C [Compound 6]

>  <subject.of.test>
ERK5 (Homo sapiens, UniProt Q13164)

>  <IC50>
≤ 50 nM

$$$$
>  <compound>
CCOc1cc(C(=O)N2CCCC(N)C2)ccc1Nc1cc2c(cn1)N(C)C(=O)c1occc1N2C (centres unmarked) [Compound 113]

>  <subject.of.test>
ERK5 (Homo sapiens, UniProt Q13164)

>  <IC50>
≤ 50 nM

$$$$
